Origin of measurements: patent US20240239767A1

Target: PCSK9 (Homo sapiens, UniProt Q8NBP7)
Sequence (Q8NBP7 31-692): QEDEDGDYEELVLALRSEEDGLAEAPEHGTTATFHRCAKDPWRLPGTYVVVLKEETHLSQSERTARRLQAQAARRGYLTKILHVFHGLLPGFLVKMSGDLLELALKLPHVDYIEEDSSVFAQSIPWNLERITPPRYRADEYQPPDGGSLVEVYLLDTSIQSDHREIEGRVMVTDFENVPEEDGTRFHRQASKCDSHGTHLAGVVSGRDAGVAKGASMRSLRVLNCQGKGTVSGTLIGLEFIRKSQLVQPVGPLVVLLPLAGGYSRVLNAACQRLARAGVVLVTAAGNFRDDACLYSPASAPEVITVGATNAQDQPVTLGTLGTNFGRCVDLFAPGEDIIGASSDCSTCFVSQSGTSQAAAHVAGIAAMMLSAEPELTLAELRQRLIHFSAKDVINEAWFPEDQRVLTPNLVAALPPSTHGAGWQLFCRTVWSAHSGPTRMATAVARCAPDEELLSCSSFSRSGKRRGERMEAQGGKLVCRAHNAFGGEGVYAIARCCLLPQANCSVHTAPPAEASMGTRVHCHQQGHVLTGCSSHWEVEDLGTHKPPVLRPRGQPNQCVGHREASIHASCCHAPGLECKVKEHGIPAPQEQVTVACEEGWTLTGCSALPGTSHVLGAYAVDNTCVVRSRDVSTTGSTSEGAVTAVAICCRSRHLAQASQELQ
readout_kind: Kd (nM)
One number for each entry, in nM.

# map each compound to its Kd
1. O=C(O)c1ccc(=O)n(-c2ccc(N[C@H]3CC[C@H](Nc4nc5cccnc5[nH]4)C3)nc2)c1
2. N#Cc1cccn(-c2ccc(N[C@H]3CC[C@H](Nc4nc5cccnc5o4)C3)nc2)c1=O
3. O=c1ccccn1-c1ccc(N[C@H]2CC[C@H](Nc3nc4cccnc4o3)C2)nc1

Solution:
[4, 3, 24]

----------
Task for the reader: assign each of the following compounds its reported IC50.
Target: potassium ion channel hERG (human Ether-á-go-go-Related Gene) (Homo sapiens, UniProt Q12809)
Sequence (Q12809 whole entry): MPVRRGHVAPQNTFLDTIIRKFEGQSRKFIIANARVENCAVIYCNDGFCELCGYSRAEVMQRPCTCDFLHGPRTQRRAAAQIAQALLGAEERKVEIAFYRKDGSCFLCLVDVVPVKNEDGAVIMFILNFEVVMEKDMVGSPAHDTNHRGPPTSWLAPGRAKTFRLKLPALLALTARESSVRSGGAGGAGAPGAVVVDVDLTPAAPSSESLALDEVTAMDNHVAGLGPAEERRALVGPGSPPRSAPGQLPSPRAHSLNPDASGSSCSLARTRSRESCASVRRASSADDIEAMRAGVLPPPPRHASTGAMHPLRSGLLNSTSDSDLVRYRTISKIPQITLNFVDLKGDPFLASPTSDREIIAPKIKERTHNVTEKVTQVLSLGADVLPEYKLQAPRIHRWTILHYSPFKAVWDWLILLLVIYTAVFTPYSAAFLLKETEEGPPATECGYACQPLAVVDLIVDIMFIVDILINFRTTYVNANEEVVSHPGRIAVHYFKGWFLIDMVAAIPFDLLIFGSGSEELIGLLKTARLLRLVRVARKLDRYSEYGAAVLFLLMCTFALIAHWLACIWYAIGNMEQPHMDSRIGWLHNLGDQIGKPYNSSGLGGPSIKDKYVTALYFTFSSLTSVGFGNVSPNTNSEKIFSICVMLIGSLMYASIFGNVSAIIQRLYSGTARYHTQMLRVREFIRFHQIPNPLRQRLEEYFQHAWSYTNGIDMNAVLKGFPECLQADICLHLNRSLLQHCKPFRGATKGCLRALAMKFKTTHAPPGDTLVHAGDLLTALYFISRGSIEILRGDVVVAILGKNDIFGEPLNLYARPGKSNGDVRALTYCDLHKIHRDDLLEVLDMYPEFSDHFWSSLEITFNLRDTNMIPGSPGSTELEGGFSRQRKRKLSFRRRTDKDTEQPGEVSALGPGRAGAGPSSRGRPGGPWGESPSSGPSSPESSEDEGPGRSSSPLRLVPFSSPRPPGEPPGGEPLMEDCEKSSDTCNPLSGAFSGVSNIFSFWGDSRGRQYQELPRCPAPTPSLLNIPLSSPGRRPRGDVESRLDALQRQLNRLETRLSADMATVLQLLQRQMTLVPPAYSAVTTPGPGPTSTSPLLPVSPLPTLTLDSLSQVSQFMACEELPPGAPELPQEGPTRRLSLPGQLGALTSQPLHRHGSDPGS
Assay: Assay 5 - hERG assay (SyncroPatch 384PE patch clamp, CHO cells)
Settings: geometric mean, CHO cells over-expressing hERG, read-out: Assay 5 (hERG Hu CHO IF EPh CR-Syncro) GMean IC50

# map each compound to its IC50
1. O=C(O)c1ccc(=O)n(-c2ccc(N[C@H]3CC[C@H](Nc4nc5cccnc5[nH]4)C3)nc2)c1 [Example 44]
2. O=c1[nH]c2ccccc2n1-c1ccc(N[C@H]2CC[C@H](Nc3nc4cccnc4[nH]3)C2)nc1 [Example 35]
3. CSc1cnc2[nH]c(N[C@H]3CC[C@H](Nc4ccc(-n5ccccc5=O)cn4)C3)nc2c1 [Example 59]
4. CP(C)(=O)c1cnc2[nH]c(N[C@H]3CC[C@H](Nc4ccc(-n5ccccc5=O)cn4)C3)nc2c1 [Example 58]
5. O=c1ccc(OC(F)F)cn1-c1ccc(N[C@H]2CC[C@H](Nc3nc4cccnc4o3)C2)nc1 [Example 78]

Solution:
> 40 µM
27.4 µM
> 13.5 µM
> 40 µM
39.6 µM

# map each compound to its IC50
1. COc1cnc2[nH]c(N[C@H]3CC[C@H](Nc4ccc(-n5ccccc5=O)cn4)C3)nc2c1 [Example 57]
2. O=c1ccccn1-c1ccc(N[C@H]2CC[C@H](Nc3nc4cc(OC(F)F)cnc4[nH]3)C2)nc1 [Example 60]

Solution:
1: > 40 µM; 2: 33 µM
